Entry source: patent US20220073617A1

- EXPERIMENTAL_TARGET: T1, monovalent hVISTA-ECD (human VISTA extracellular domain with His tail) (human, UniProt Q9H7M9 33-193)
- T1 construct: analyte flowed over captured antibody; also called huVISTA-His
- T1 sequence (Q9H7M9 other isoform, or with tags, fused parts or gaps limits assumed): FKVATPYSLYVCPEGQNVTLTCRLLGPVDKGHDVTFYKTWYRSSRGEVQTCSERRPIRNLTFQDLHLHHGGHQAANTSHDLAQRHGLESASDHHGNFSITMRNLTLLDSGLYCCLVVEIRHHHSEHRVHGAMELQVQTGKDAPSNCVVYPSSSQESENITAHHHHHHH
- EXPERIMENT: SPR, pH 6.0
We label by threshold. Values of Kd strictly beneath 2 nM are 1.0. Values of 2 nM and up are 0.0.

{"BINDER": "P1-064392 (41F11_HC_Mutant: D31E/Y50W/S55E/Y100E 41F11_LC_Mutant: V29D/A64G/Q89E/R91T) (antibody, V domains shown, Kabat positions; also called P1-064392-1) VH: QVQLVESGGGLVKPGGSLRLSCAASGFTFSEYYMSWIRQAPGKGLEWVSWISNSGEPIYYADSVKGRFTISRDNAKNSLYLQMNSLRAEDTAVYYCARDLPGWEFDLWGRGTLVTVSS VL: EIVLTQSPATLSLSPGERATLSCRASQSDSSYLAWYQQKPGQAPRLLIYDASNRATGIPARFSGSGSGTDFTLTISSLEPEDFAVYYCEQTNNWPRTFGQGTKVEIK", "ANSWER_LABEL": 1.0}
{"BINDER": "P1-064391 (41F11_HC_Mutant: D31E/Y50W/S55E/Y100E 41F11_LC_Mutant: V29D/A64G/R91T) (antibody, V domains shown, Kabat positions; also called P1-064391-1) VH: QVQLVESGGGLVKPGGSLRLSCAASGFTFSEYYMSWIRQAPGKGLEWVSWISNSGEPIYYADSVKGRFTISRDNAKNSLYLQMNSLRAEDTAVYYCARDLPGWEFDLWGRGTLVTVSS VL: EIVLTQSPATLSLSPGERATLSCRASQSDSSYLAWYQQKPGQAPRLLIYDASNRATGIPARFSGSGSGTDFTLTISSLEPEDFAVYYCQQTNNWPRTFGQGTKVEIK", "ANSWER_LABEL": 0.0}
{"BINDER": "P1-070976 (41F11_VH_T28P/Y50W/S55E/D95H/L96E/P97E/Y100E; Vk_A64G) (antibody, human IgG1, kappa, V domains shown, IgG1.3; also called P1-070976-7; acidic pH selective VISTA.4 progeny) VH: QVQLVESGGGLVKPGGSLRLSCAASGFPFSDYYMSWIRQAPGKGLEWVSWISNSGEPIYYADSVKGRFTISRDNAKNSLYLQMNSLRAEDTAVYYCARHEEGWEFDLWGRGTLVTVSS VL: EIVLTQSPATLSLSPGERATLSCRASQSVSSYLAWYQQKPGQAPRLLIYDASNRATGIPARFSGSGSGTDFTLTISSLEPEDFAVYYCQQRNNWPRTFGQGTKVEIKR", "ANSWER_LABEL": 0.0}
{"BINDER": "VISTA.4 A64G (41F11 Vk:A64G) (antibody, human IgG1, kappa, V domains shown, IgG1.3; also called P1-061520; P1-061520-10) VH: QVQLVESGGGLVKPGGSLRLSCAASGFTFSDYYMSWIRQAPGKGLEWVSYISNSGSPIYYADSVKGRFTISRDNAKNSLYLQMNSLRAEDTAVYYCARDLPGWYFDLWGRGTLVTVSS VL: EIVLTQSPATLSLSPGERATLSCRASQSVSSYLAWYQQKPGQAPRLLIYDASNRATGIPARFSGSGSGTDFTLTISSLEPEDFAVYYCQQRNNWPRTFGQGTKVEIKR", "ANSWER_LABEL": 0.0}
{"BINDER": "P1-065326 (41F11_VH_D31E/Y50W/S55E/L96E/Y100E VK_A64G) (antibody, V domains shown, Kabat positions; also called P1-065326-1) VH: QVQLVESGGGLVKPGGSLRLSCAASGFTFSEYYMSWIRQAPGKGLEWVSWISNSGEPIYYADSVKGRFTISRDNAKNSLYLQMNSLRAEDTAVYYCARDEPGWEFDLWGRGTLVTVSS VL: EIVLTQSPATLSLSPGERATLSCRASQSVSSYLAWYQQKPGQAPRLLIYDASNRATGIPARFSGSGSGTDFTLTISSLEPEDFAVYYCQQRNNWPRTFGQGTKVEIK", "ANSWER_LABEL": 1.0}
{"BINDER": "P1-065333 (41F11_VH_T28P/Y50W/S55E/L96E/Y100E VK_A64G) (antibody, human IgG1, kappa, V domains shown, IgG1.3; also called P1-065333-1; VISTA.4 pH-independent progeny) VH: QVQLVESGGGLVKPGGSLRLSCAASGFPFSDYYMSWIRQAPGKGLEWVSWISNSGEPIYYADSVKGRFTISRDNAKNSLYLQMNSLRAEDTAVYYCARDEPGWEFDLWGRGTLVTVSS VL: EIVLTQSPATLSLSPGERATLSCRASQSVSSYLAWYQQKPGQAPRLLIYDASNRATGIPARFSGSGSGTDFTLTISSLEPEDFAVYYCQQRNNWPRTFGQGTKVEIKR", "ANSWER_LABEL": 1.0}
{"BINDER": "P1-064510 (41F11_Vk_A25E/V29D/A64G/R91T) (antibody, V domains shown, also called P1-064510-1) VH: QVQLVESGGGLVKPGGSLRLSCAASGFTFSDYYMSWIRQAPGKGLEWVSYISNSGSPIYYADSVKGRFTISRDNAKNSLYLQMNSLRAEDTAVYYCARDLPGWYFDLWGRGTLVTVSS VL: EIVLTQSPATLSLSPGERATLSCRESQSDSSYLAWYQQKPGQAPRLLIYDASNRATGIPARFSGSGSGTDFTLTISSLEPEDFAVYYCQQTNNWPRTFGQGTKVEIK", "ANSWER_LABEL": 0.0}
